- EXPERIMENTAL TARGET: human TLR8 (Homo sapiens, UniProt Q9NR97)
- Construct: host or cells: HEK-Blue cells
- Sequence (Q9NR97 27-1041): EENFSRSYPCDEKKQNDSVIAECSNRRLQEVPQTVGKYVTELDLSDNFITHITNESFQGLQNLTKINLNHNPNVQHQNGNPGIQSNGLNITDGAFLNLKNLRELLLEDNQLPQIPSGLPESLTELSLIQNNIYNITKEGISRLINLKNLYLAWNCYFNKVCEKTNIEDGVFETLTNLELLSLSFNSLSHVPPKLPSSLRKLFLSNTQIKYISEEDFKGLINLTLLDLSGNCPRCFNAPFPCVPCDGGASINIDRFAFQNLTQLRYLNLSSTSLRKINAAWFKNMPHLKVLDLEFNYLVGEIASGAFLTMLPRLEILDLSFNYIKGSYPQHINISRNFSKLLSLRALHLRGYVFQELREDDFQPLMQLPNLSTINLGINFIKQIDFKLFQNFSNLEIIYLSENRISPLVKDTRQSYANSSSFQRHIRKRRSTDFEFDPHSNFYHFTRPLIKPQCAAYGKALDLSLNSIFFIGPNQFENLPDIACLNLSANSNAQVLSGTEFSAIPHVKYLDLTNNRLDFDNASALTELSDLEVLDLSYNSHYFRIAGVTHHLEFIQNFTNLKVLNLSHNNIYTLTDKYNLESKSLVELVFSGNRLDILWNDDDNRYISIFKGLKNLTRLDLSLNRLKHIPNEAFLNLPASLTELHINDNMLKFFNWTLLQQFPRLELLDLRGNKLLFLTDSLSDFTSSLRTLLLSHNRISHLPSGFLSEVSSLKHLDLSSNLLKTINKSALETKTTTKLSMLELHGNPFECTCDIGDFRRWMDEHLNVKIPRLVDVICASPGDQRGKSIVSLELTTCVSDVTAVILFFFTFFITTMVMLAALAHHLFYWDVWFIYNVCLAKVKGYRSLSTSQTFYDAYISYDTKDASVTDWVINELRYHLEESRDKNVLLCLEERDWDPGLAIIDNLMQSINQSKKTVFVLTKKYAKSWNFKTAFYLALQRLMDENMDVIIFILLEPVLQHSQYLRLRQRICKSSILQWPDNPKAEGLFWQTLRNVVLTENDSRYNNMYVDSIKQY
- TEST DESCRIPTION: TLR8 inhibition reporter assay (HEK-Blue cells, SEAP reporter, R848 stimulation)
- Type: cell-based
- PARTICULARS: HEK-Blue cells overexpressing human TLR8, SEAP reporter, R848 15.9 μM; read-out: TLR8 IC50
pIC50: −log10 of the molar value.
PARAMETER: pIC50

**Query** // pIC50 lookup, key: COC1CN(C2CCC(c3nc4c(C(C)C)c(-c5cn6ncnc6cc5C)[nH]c4s3)CC2)C1 (single isomer, unassigned) [Example 151]
**Result** 7.22

[a] CC(C)c1c(-c2cn(C)c3ncccc23)[nH]c2sc(C3CCC(NCC(C)(C)O)CC3)nc12 (single isomer, unassigned) [Example 183]
[b] Cc1c(-c2[nH]c3sc(C4CCC(N5CCNC(=O)C5)CC4)nc3c2C(C)C)cn2ncnc2c1C (single isomer, unassigned) [Example 221]
**Query** Sort a and b by pIC50 descending and give the first. Give the label of your selection.
**Result** a

====

- EXPERIMENTAL TARGET: human TLR7 (Homo sapiens, UniProt Q9NYK1)
- Construct: host or cells: HEK-Blue cells
- Sequence (Q9NYK1 27-1049): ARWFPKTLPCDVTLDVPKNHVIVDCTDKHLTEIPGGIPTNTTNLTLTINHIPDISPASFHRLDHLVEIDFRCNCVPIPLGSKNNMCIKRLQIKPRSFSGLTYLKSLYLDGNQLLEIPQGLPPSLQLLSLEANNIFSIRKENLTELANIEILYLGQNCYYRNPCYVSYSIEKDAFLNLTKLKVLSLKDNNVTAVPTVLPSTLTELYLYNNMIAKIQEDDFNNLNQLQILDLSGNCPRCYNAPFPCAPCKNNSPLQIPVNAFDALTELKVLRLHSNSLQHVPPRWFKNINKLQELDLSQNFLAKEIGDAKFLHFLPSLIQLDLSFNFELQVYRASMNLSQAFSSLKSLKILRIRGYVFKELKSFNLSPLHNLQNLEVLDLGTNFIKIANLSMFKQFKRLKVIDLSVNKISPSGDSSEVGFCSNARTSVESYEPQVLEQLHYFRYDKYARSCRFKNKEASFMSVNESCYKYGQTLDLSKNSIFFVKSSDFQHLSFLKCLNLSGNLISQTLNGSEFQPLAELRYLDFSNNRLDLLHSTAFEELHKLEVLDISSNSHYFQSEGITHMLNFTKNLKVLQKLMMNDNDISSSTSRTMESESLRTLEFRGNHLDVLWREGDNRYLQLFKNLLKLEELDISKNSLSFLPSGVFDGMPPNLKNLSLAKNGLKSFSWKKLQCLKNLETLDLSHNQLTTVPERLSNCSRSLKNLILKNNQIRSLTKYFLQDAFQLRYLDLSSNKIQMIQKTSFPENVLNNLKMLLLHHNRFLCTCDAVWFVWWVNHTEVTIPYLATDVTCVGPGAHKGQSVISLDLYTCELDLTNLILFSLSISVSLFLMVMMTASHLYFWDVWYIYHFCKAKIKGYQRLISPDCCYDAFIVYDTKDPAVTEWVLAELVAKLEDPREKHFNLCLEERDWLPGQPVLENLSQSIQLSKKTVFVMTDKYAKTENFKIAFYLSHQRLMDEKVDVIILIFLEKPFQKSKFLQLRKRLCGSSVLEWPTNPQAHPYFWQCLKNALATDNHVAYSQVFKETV
- TEST DESCRIPTION: TLR7 inhibition reporter assay (HEK-Blue cells, SEAP reporter, gardiquimod stimulation)
- Type: cell-based
- PARTICULARS: HEK-Blue cells overexpressing human TLR7, SEAP reporter, gardiquimod 7.5 μM; read-out: TLR7 IC50
pIC50: −log10 of the molar value.
PARAMETER: pIC50

Recorded results for 5 compounds are shown here.
**Query** GET /values?readout=pIC50&system=human TLR7 (Homo sapiens, UniProt Q9NYK1)&item= Cc1cc(-c2[nH]c3sc(C(=O)N4CCNC(=O)C4)nc3c2C(C)C)cn2ncnc12
**Result** 6.62

**Query** Try this compound next: CC(C)c1c(-c2cn(C)c3ncccc23)[nH]c2sc(C3CCC(NCC(C)(C)O)CC3)nc12 (single isomer, unassigned) [Example 182]
**Result** 8.76

**Query** Try this compound next: CC(C)c1c(-c2cn(C)c3ncccc23)[nH]c2sc(C3CCC(N4CC5(COC5)C4)CC3)nc12 (single isomer, unassigned) [Example 181]
**Result** 8.00

**Query** Try this compound next: Cc1c(-c2[nH]c3sc(N4CCN(CC(=O)N(C)C)C[C@@H]4C)nc3c2C(C)C)cn2ncnc2c1C
**Result** 7.62

**Query** Try this compound next: Cc1cc(-c2[nH]c3sc(C4CCC(NCC5(CO)CC5)CC4)nc3c2C(C)C)cn2ncnc12 (single isomer, unassigned) [Example 142]
**Result** 8.68

[a] Cc1c(-c2[nH]c3sc(C4CCC(NC5CCOCC5)CC4)nc3c2C(C)C)cn(C)c(=O)c1C (single isomer, unassigned) [Example 249]
[b] COc1cc(-c2[nH]c3sc(C4CCC(N5CCC5)CC4)nc3c2C(C)C)cn2ncnc12 (single isomer, unassigned) [Example 77]
**Query** Sort a and b by pIC50 descending and give the first. Give the label of your selection.
**Result** b
(b: 8.69, a: 8.20)

[1] CCN1CCN(c2nc3c(C(C)C)c(-c4cn5ncnc5c(C)c4C)[nH]c3s2)[C@H](C)C1
[2] COc1cc(-c2[nH]c3sc(C4CCC(N5CCC5)CC4)nc3c2C(C)C)cn2ncnc12 (single isomer, unassigned) [Example 76]
**Query** Sort 1 and 2 by pIC50 descending and give the first. Give the label of your selection.
**Result** 2
(2: 9.05, 1: 8.36)

[P] Cc1c(-c2[nH]c3sc(C4CCC(N5CCOCC5)CC4)nc3c2C(C)C)cn2ncnc2c1C (single isomer, unassigned) [Example 212]
[Q] Cc1c(-c2[nH]c3sc(N4C[C@@H](C)N(C5CCOCC5)C[C@@H]4C)nc3c2C(C)C)cn2ncnc2c1C
**Query** Sort P and Q by pIC50 descending and give the first. Give the label of your selection.
**Result** P

====

- EXPERIMENTAL TARGET: human TLR9 (Homo sapiens, UniProt Q9NR96)
- Sequence (Q9NR96 26-1032): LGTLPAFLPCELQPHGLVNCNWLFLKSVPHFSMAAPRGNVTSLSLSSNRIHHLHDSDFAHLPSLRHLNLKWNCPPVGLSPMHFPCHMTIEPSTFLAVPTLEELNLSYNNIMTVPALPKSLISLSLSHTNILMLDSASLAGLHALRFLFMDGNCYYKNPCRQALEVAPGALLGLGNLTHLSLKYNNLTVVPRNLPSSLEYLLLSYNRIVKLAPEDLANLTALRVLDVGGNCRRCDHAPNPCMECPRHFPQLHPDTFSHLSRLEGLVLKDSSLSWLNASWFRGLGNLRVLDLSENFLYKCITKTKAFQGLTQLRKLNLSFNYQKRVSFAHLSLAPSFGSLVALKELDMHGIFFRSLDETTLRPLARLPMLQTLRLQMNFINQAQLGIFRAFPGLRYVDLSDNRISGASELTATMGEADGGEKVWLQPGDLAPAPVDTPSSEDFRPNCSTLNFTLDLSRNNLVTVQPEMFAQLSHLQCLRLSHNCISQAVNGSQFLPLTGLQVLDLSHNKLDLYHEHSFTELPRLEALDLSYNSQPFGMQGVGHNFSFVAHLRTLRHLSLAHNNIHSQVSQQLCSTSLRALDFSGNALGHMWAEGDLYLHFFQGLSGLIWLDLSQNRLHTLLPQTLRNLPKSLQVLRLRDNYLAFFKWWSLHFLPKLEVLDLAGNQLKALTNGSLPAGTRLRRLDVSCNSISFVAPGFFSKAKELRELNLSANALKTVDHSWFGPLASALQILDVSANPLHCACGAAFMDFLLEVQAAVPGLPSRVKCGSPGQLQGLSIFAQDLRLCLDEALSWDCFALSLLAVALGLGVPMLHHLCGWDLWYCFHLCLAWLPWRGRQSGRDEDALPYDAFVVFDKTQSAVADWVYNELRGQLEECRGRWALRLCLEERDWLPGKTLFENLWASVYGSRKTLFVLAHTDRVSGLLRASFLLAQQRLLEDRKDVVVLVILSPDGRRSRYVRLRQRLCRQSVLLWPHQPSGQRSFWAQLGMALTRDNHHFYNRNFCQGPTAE
- TEST DESCRIPTION: TLR9 inhibition reporter assay (HEK-Blue cells, SEAP reporter, ODN2006 stimulation)
- PARTICULARS: HEK-Blue cells overexpressing human TLR9, SEAP reporter, ODN2006 5 nM
PARAMETER: IC50 (µM)

Recorded results for 5 compounds are shown here.
**Query** // IC50 lookup, key: COc1cc(-c2[nH]c3sc(C4CCC(N5CC(CO)(CO)C5)CC4)nc3c2C(C)C)cn2ncnc12 (single isomer, unassigned) [Example 67]
**Result** 2.25

**Query** Try this compound next: CCN1CCC(c2nc3c(C(C)C)c(-c4cn5ncnc5c(C)c4C)[nH]c3s2)CC1 [Example 50]
**Result** 17.3

**Query** Try this compound next: Cc1c(-c2[nH]c3sc(C4CCC(N5CCC5)CC4)nc3c2C(C)C)cn2ncnc2c1C (single isomer, unassigned) [Example 217]
**Result** 5.87

**Query** Try this compound next: COc1cc(-c2[nH]c3sc(C(=O)NCCN4CCCC4)nc3c2C(C)C)cn2ncnc12 [Example 387]
**Result** 11.5

**Query** Try this compound next: CC(C)c1c(-c2cn(C)c3ncccc23)[nH]c2sc(C3CCN(CC(=O)N(C)C)CC3)nc12 [Example 30]
**Result** 14.8

[a] CC(C)c1c(-c2ccc(C#N)c3ncccc23)[nH]c2sc(C3CCN(C4CCOCC4)CC3)nc12 [Example 38]
[b] Cc1c(-c2[nH]c3sc(N4CCN(C(C)C)C[C@@H]4C)nc3c2C(C)C)cn2ncnc2c1C [Example 351]
**Query** Of a and b , which carries the smaller reported IC50 figure? Give the label of your selection.
**Result** a

[a] CC(C)c1c(-c2cn(C)c3ncccc23)[nH]c2sc(C3CCC(N4CC5(COC5)C4)CC3)nc12 (single isomer, unassigned) [Example 180]
[b] Cc1c(-c2[nH]c3sc(C4CCC(N(C)C(C)C)CC4)nc3c2C(C)C)cn2ncnc2c1C (single isomer, unassigned) [Example 223]
[c] Cc1c(-c2[nH]c3sc(C4CCC(NC5CCS(=O)(=O)C5)CC4)nc3c2C(C)C)cn2ncnc2c1C (single isomer, unassigned) [Example 231]
[d] Cc1c(-c2[nH]c3sc(C(=O)N(C)CCN(C)C)nc3c2C(C)C)cn2ncnc2c1C [Example 382]
[e] COc1cc(-c2[nH]c3sc(C4CCC(N5CCC6(CCNC6)C5)CC4)nc3c2C(C)C)cn2ncnc12 (single isomer, unassigned) [Example 114]
**Query** Put the compounds in ascending order of IC50. When ranking, write the labels in the order the request describes.
**Result** e, a, d, b, c

[A] COc1cc(-c2[nH]c3sc(C4CCC(N(C)C5COC5)CC4)nc3c2C(C)C)cn2ncnc12 (single isomer, unassigned) [Example 125]
[B] CC(C)c1c(-c2ccc(C#N)c3ncccc23)[nH]c2sc(C3CCN(C(=O)CN(C)C)CC3)nc12 [Example 39]
[C] CCC1(NC2CCC(c3nc4c(C(C)C)c(-c5cc(OC)c6ncnn6c5)[nH]c4s3)CC2)COC1 (single isomer, unassigned) [Example 95]
**Query** Falling order of IC50, please. When ranking, write the labels in the order the request describes.
**Result** C, A, B
(C: 43.2 µM, A: 5.4 µM, B: 3.56 µM)

[1] Cc1c(-c2[nH]c3sc(N4C[C@@H](C)N(C5COC5)C[C@@H]4C)nc3c2C(C)C)cn2ncnc2c1C [Example 328]
[2] COc1cc(-c2[nH]c3sc(C4CCN(CC5(C)COC5)CC4)nc3c2C(C)C)cn2ncnc12 [Example 14]
[3] COc1cc(-c2[nH]c3sc(C4CCC(NC5(C)CCC5)CC4)nc3c2C(C)C)cn2ncnc12 (single isomer, unassigned) [Example 108]
**Query** Put the compounds in ascending order of IC50. When ranking, write the labels in the order the request describes.
**Result** 2, 3, 1
(2: 3.84 µM, 3: 5.7 µM, 1: 18.8 µM)
